Measured Ki (Carbonic anhydrase 1 (Homo sapiens, UniProt P00915))
Answers are plain numbers, in µM.

Quick one: give me Ki for each item below, same order please.
1. NS(=O)(=O)c1ccc(COC(=O)CN(CC(=O)O)CC(=O)O)cc1
2. NS(=O)(=O)c1ccc(NNC(=O)CN(CCOCCOCCN(CC(=O)O)CC(=O)NNc2ccc(S(N)(=O)=O)cc2)CC(=O)O)cc1
3. NS(=O)(=O)c1ccccc1NC(=O)CN(CCOCCOCCN(CC(=O)O)CC(=O)O)CC(=O)O

RESULT:
1. 1.2
2. 9.5
3. 8.9

QUERY: Return reported Ki; argument: `NS(=O)(=O)c1cccc(NC(=O)CN(CCN(CC(=O)O)c2ccccc2O)c2ccccc2O)c1`
RESULT: 10

====

Target or system Carbonic anhydrase 4 (Bos taurus); recorded quantity pKi.
Give bare numbers, as −log10 of the molar value.

Example entries and their recorded answers appear below.
{"line_notation": "NS(=O)(=O)c1nnc(NC(=O)CCNC(=O)CN(CCN(CC(=O)O)CC(=O)NCCC(=O)Nc2nnc(S(N)(=O)=O)s2)CC(=O)O)s1", "pKi": 8.00}
{"line_notation": "NS(=O)(=O)c1ccc(NC(=O)CN(CCN(CC(=O)O)CC(=O)O)CC(=O)O)c(I)c1", "pKi": 7.11}
{"line_notation": "NS(=O)(=O)c1ccc(NC(=O)CN(CCOCCOCCN(CC(=O)O)CC(=O)Nc2ccc(S(N)(=O)=O)cc2)CC(=O)O)cc1", "pKi": 7.12}

Would you be so kind as to report pKi for each listed record?
1. NS(=O)(=O)c1ccc(CCOC(=O)CN(CCOCCOCCN(CC(=O)O)CC(=O)OCCc2ccc(S(N)(=O)=O)cc2)CC(=O)O)cc1
2. NS(=O)(=O)c1ccc(NC(=O)CNCC(=O)O)c(I)c1

RESULT:
7.02
6.94

====

Consider compounds characterized by their pKi with Carbonic anhydrase 1 (Homo sapiens).
One number for each entry, as −log10 of the molar value.

{"line_notation": "NS(=O)(=O)c1ccc(NC(=O)CN(CCN(CC(=O)O)CC(=O)O)CC(=O)O)c(I)c1", "pKi": 6.91}
{"line_notation": "NS(=O)(=O)c1nc2ccc(OC(=O)CN(CCN(CC(=O)O)c3ccccc3O)c3ccccc3O)cc2s1", "pKi": 7.33}
{"line_notation": "NS(=O)(=O)c1ccc(NC(=O)CN(CC(=O)O)CC(=O)O)c(Cl)c1", "pKi": 6.02}
{"line_notation": "NS(=O)(=O)c1ccc(NC(=O)CN(CCOCCOCCN(CC(=O)O)CC(=O)Nc2ccc(S(N)(=O)=O)cc2I)CC(=O)O)c(I)c1", "pKi": 7.12}

For each of the compounds below, note its pKi.
1. NS(=O)(=O)c1nc2ccc(OC(=O)CN(CCN(CCN(CC(=O)O)CC(=O)Oc3ccc4nc(S(N)(=O)=O)sc4c3)CC(=O)O)CC(=O)O)cc2s1
2. NS(=O)(=O)c1cc(S(N)(=O)=O)c(NC(=O)CN(CCN(CC(=O)O)CC(=O)Nc2cc(Cl)c(S(N)(=O)=O)cc2S(N)(=O)=O)CC(=O)O)cc1Cl
3. NS(=O)(=O)c1cc(S(N)(=O)=O)c(NC(=O)CNCCNCC(=O)O)cc1Cl
4. NS(=O)(=O)c1ccc(NC(=O)CN(CCOCCOCCN(CC(=O)O)CC(=O)O)CC(=O)O)cc1
5. NS(=O)(=O)c1ccc(CCOC(=O)CN(CCOCCOCCN(CC(=O)O)CC(=O)O)CC(=O)O)cc1
6. NS(=O)(=O)c1ccc(NC(=O)CN(CC(=O)O)CC(=O)O)c(F)c1
7. NS(=O)(=O)c1cc(S(N)(=O)=O)c(NC(=O)CNCC(=O)O)c(Cl)c1Cl

RESULT:
1. 7.80
2. 7.14
3. 6.60
4. 5.40
5. 6.37
6. 6.00
7. 6.39

For every item below, please supply its pKi.
1. NS(=O)(=O)c1ccccc1NC(=O)CN(CCN(CC(=O)O)CC(=O)O)CC(=O)O
2. NS(=O)(=O)c1ccc(NC(=O)CN(CCOCCOCCN(CC(=O)O)CC(=O)Nc2ccc(S(N)(=O)=O)cc2)CC(=O)O)cc1
3. NS(=O)(=O)c1ccc(NC(=O)CN(CCOCCOCCN(CC(=O)O)CC(=O)O)CC(=O)O)c(Cl)c1

RESULT:
1: 5.04; 2: 6.52; 3: 6.64

====

Please provide measured Kin x10e3 for the entries that follow.
Answers are plain numbers, in hr-1.

Would you please look over these solved cases?
{"line_notation": "NS(=O)(=O)c1ccc(NC(=O)CN(CCN(CCN(CC(=O)O)CC(=O)O)CC(=O)O)CC(=O)O)cc1", "property_label": "Kin x10e3", "value": 6.9}
{"line_notation": "NS(=O)(=O)c1nnc(NC(=O)CCNC(=O)CNCC(=O)O)s1", "property_label": "Kin x10e3", "value": 4.6}

QUERY: Would you kindly share the measured Kin x10e3 for `NS(=O)(=O)c1nnc(NC(=O)CCNC(=O)CN(CCN(CC(=O)O)CC(=O)NCCC(=O)Nc2nnc(S(N)(=O)=O)s2)CC(=O)O)s1` ?
RESULT: 5.9

====

Would you mind telling me the reported pKi of each entry?
target: UniProtKB P00915
One number for each entry, as −log10 of the molar value.

Known results for molecules:
{"line_notation": "NS(=O)(=O)c1ccc(NC(=O)CN(CCN(CC(=O)O)CC(=O)O)CC(=O)O)c(Cl)c1", "target_desc": "UniProtKB P00915", "value": 6.15}
{"line_notation": "NS(=O)(=O)c1nc2ccc(OCCOC(=O)CN(CCN(CC(=O)O)c3ccccc3O)c3ccccc3O)cc2s1", "target_desc": "UniProtKB P00915", "value": 7.39}

Below is a list of molecules. For each, state its recorded pKi.
1. NS(=O)(=O)c1ccc(NC(=O)CNCC(=O)O)c(Br)c1
2. NS(=O)(=O)c1ccc(NC(=O)CN(CCN(CC(=O)O)c2ccccc2O)c2ccccc2O)c(Br)c1

RESULT:
1. 6.21
2. 6.76

====

Carbonic anhydrase 1 (Homo sapiens, UniProt P00915) Ki data
Sequence (P00915 whole entry): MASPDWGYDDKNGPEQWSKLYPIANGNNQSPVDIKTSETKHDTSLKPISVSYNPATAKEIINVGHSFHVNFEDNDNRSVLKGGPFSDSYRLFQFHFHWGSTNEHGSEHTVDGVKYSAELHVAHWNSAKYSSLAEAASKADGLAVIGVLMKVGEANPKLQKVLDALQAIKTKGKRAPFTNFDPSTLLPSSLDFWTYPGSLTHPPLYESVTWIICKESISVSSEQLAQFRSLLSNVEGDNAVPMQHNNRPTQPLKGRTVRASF
Numbers only, in nM.

Some solved entries appear below for comparison.
{"line_notation": "NS(=O)(=O)c1ccc(CNC(=O)CN(CC(=O)O)CC(=O)O)cc1", "property_label": "Ki", "value": 3500}
{"line_notation": "NS(=O)(=O)c1nc2ccc(NC(=O)CNCCNCC(=O)O)cc2s1", "property_label": "Ki", "value": 56}

List the reported Ki of each molecule below.
1. NS(=O)(=O)c1nc2ccc(OCCOC(=O)CN(CCN(CC(=O)O)CC(=O)O)CC(=O)O)cc2s1
2. Cn1nc(S(N)(=O)=O)s/c1=N/C(=O)CN(CCN(CCN(CC(=O)O)CC(=O)/N=c1/sc(S(N)(=O)=O)nn1C)CC(=O)O)CC(=O)O
3. NS(=O)(=O)c1ccc(CCNC(=O)CN(CCOCCOCCN(CC(=O)O)CC(=O)NCCc2ccc(S(N)(=O)=O)cc2)CC(=O)O)cc1

RESULT:
39
43
160
